// provenance: patent US20210355104A1

biological target: Adenosine A2A receptor (Homo sapiens, UniProt P29274); test: cAMP assay in 293A cells stably expressing the adenosine A2A receptor (CGS21680 stimulation, HTRF); assay type: cell-based; parameters: expressed in transfected cells; host or cells: 293A cells (Invitrogen, Cat# R705-07) infected with A2A-expressing lentivirus (custom packaged by Biosettia), puromycin selected; conditions: 293A-A2AR cells, 0.1% BSA, 8 nM CGS; read-out: cAMP (nM) 0.1% BSA, 8 nM CGS
Sequence (P29274 whole entry): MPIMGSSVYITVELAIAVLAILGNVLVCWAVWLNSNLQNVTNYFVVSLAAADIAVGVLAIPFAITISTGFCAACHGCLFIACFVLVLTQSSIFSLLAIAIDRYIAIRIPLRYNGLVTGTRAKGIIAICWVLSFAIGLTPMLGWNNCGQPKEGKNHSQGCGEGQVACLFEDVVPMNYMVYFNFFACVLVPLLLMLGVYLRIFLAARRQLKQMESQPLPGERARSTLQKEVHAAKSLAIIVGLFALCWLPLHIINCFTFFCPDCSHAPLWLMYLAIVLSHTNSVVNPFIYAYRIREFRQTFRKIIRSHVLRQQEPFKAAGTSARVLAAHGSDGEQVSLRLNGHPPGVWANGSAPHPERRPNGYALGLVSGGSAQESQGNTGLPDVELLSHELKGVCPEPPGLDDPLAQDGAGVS
measurement-label: IC50 (nM)

Use these answered entries as a reference point.
compound	IC50 (nM)
Cc1cc(-c2c(OCc3nccn3CCC(=O)O)nc(N)nc2-c2ccc(F)cc2)cc(C(F)F)n1	24
Cc1cc(-c2c(OCCOc3ccnc(N(C)CCO)c3)nc(N)nc2-c2ccc(F)cc2)cc(C(F)F)n1	62
Cc1cc(-c2c(OCc3nccn3CC(C)C(=O)O)nc(N)nc2-c2ccc(F)cc2)cc(C(F)F)n1 (stereo not drawn)	29
CCc1nnn(CC)c1COc1nc(N)nc(-c2ccc(F)cc2)c1-c1cc(C)nc(C(F)F)c1	16

[I] Cc1cc(-c2c(OCC3CCC(C)(O)CC3)nc(N)nc2-c2ccc(F)cc2)cc(C(F)F)n1 (stereo not drawn)
[II] CCN(CC(C)O)C(=O)COc1nc(N)nc(-c2ccc(F)cc2)c1-c1cc(C)nc(C(F)F)c1 (stereo not drawn)
For I and II , which recorded IC50 is lower? Return value: the label identifying the chosen record.
I

====

biological target: Adenosine A2A receptor (Homo sapiens, UniProt P29274); test: cAMP assay in 293A cells stably expressing the adenosine A2A receptor (CGS21680 stimulation, HTRF); assay type: cell-based; design: expressed in transfected cells; host or cells: 293A cells (Invitrogen, Cat# R705-07) infected with A2A-expressing lentivirus (custom packaged by Biosettia), puromycin selected; details: 293A-A2AR cells, 0.1% BSA, 1 uM CGS; values separated by / are repeat determinations; read-out: cAMP (nM) 0.1% BSA, 1 uM CGS
measurement-label: IC50 (nM)

Use these answered entries as a reference point.
smiles-notation	measurement-label	number
Cc1cc(-c2c(OC[C@@H](O)CO)nc(N)nc2-c2ccc(F)cc2)cc(C(F)F)n1	IC50	1610
Cc1cc(-c2c(OCCN(C)c3nccc(N)n3)nc(N)nc2-c2ccc(F)cc2)cc(C(F)F)n1	IC50	5460

[I] Cc1cc(-c2c(OC[C@@H](C)O)nc(N)nc2-c2ccc(F)cc2)cc(C(F)F)n1
[II] Cc1cc(-c2c(OCC3(CO)CCOCC3)nc(N)nc2-c2ccc(F)cc2)cc(C(F)F)n1
Hi, I'm comparing I with II and wondering which one has the bigger number for IC50. Any idea? Return value: the label identifying the chosen record.
II
(II: 1890 nM, I: 693 nM)

====

biological target: Adenosine A2A receptor (Homo sapiens, UniProt P29274); assay: cAMP assay in 293A cells stably expressing the adenosine A2A receptor (CGS21680 stimulation, HTRF); format: cell-based; set-up: expressed in transfected cells; host or cells: 293A cells (Invitrogen, Cat# R705-07) infected with A2A-expressing lentivirus (custom packaged by Biosettia), puromycin selected; conditions: 293A cells stably expressing A2A receptor; 0.1% BSA; 1 uM CGS21680 stimulation; replicate values separated by /; read-out: cAMP (nM) 0.1% BSA, 1 uM CGS
measurement-label: IC50 (nM)

Use these answered entries as a reference point.
compound	scale-unit	IC50
Cc1cc(-c2c(OCc3nc(OCC(=O)O)cc4ccccc34)nc(N)nc2-c2ccc(F)cc2)cc(C(F)F)n1 [Example 405]	nM	619
Cc1cc(-c2c(OCc3cc(-c4nnnn4C)cc(C(C)(C)O)n3)nc(N)nc2-c2ccc(F)cc2)cc(C(F)F)n1 [Example 443]	nM	23200

[a] CNC(=O)CNCc1cccc(COc2nc(N)nc(-c3ccc(F)cc3)c2-c2cc(C)nc(C(F)F)c2)n1 [Example 440]
[b] Cc1cc(-c2c(OCc3nccc4nn(C)cc34)nc(N)nc2-c2ccc(F)cc2)cc(C(F)F)n1 [Example 430]
[c] Cc1cc(-c2c(OCc3cccc(C(O)(CCO)CCO)n3)nc(N)nc2-c2ccc(F)cc2)cc(C(F)F)n1 [Example 432]
[d] Cc1cc(-c2c(OCc3cccc(C4(CCO)CCOC4=O)n3)nc(N)nc2-c2ccc(F)cc2)cc(C(F)F)n1 (stereo not drawn) [Example 439]
// ascending sort on recorded IC50 Would you mind listing the labels in the order requested?
d, a, c, b
(d: 103 nM, a: 215 nM, c: 1260 nM, b: 2460 nM)

[A] Cc1cc(-c2c(OCc3cccc(CNCC(=O)N(C)C)n3)nc(N)nc2-c2ccc(F)cc2)cc(C(F)F)n1 [Example 437]
[B] Cc1cc(-c2c(OCc3cccc(NC(CO)CO)n3)nc(N)nc2-c2ccc(F)cc2)cc(C(F)F)n1 [Example 442]
For A and B , which recorded IC50 is lower? Return value: the label identifying the chosen record.
B
(B: 177 nM, A: 282 nM)
